Target: HIV-1 RT (Human immunodeficiency virus type 1 group M subtype B)
Experiment: HIV-1 reverse transcriptase assay with homopolymeric template/primers
Type: biochemical
Conditions: read-out: IC50 HIV-1 RT Poly rI.dC ([3H]dCTP); Poly rI.dC, [3H]dCTP
pIC50: −log10 of the molar value.
Below is a list of entries, each paired with its recorded pIC50 value.

compound: Nc1nc2c(ncn2[C@H]2CC[C@@H](COP(=O)(O)OP(=O)(O)OP(=O)(O)O)O2)c(=O)[nH]1 [ddGTP, reference compound]
system_under_test: HIV-1 RT (Human immunodeficiency virus type 1 group M subtype B)
pIC50: < 4.70

Then this compound:
Exam item: What pIC50 value was documented for this compound, Cc1cn([C@H]2CC[C@@H](COP(=O)(O)OP(=O)(O)OP(=O)(O)O)O2)c(=O)[nH]c1=O [ddTTP, reference compound] ?
Marked response: < 4.70
